- Tested on: A549
- TEST_DETAILS: cells
- CONDITION_DETAILS: Homo sapiens, A549, 72 h
- Description: Antiproliferative activity against human A549 cells after 72 hrs by MTT assay
EXPERIMENTAL_ENDPOINT: log10 of IC50 (log10 of the value in nM)

# SMILES_RECORD, RECORDED_RESULT
rows = [
    ("O=C(Nc1ccc(Oc2ccnc3[nH]ccc23)c(F)c1)c1cc2cccnc2n(-c2ccc(C(F)(F)F)cc2Cl)c1=O", 3.01),
    ("O=C(Nc1ccc(Oc2ccnc3[nH]ccc23)c(F)c1)c1cc2cccnc2n(-c2ccccc2)c1=O", 2.28),
    ("O=C(Nc1ccc(Oc2ccnc3[nH]ccc23)cc1)c1cc2cccnc2n(-c2ccc(Br)cc2F)c1=O", 3.20),
    ("O=C(Nc1ccc(Oc2ccnc3[nH]ccc23)cc1)c1cc2cccnc2n(-c2ccc(F)cc2)c1=O", 2.32),
    ("O=C(Nc1ccc(Oc2ccnc3[nH]ccc23)c(F)c1)c1cc2cccnc2n(-c2ccc(Br)cc2F)c1=O", 2.66),
    ("O=C(Nc1ccc(Oc2ccnc3[nH]ccc23)cc1)c1cc2cccnc2n(-c2ccc(Cl)cc2)c1=O", 2.46),
    ("Cn1ccc2c(Oc3ccc(NC(=O)c4cc5cccnc5n(-c5ccc(F)c(Cl)c5)c4=O)cc3)ccnc21", 2.91),
    ("Cn1ccc2c(Oc3ccc(NC(=O)c4cc5cccnc5n(-c5ccc(Cl)cc5)c4=O)cc3F)ccnc21", 2.54),
    ("O=C(Nc1ccc(Oc2ccnc3[nH]ccc23)cc1)c1cc2cccnc2n(-c2ccc(Br)cc2)c1=O", 2.45),
    ("O=C(Nc1ccc(Oc2ccnc3[nH]ccc23)c(F)c1)c1cc2cccnc2n(-c2ccc(F)c(Cl)c2)c1=O", 2.80),
    ("Cn1ccc2c(Oc3ccc(NC(=O)c4cc5cccnc5n(-c5ccc(C(F)(F)F)cc5Cl)c4=O)cc3F)ccnc21", 3.55),
    ("Cn1ccc2c(Oc3ccc(NC(=O)c4cc5cccnc5n(-c5ccccc5)c4=O)cc3)ccnc21", 2.93),
    ("O=C(Nc1ccc(Oc2ccnc3[nH]ccc23)c(F)c1)c1cc2cccnc2n(-c2ccc(Br)cc2)c1=O", 2.32),
    ("Cn1ccc2c(Oc3ccc(NC(=O)c4cc5cccnc5n(-c5ccc(Br)cc5F)c4=O)cc3F)ccnc21", 3.43),
    ("COc1ccc(-n2c(=O)c(C(=O)Nc3ccc(Oc4ccnc5[nH]ccc45)cc3)cc3cccnc32)cc1", 2.97),
    ("O=C(Nc1ccc(Oc2ccnc3[nH]ccc23)cc1)c1cc2cccnc2n(-c2ccc(C(F)(F)F)cc2Cl)c1=O", 3.51),
    ("O=C(Nc1ccc(Oc2ccnc3[nH]ccc23)cc1)c1cc2cccnc2n(-c2ccc(F)c(Cl)c2)c1=O", 2.83),
    ("O=C(Nc1ccc(Oc2ccnc3[nH]ccc23)cc1)c1cc2cccnc2n(-c2ccccc2)c1=O", 2.56),
    ("O=C(Nc1ccc(Oc2ccnc3[nH]ccc23)c(F)c1)c1cc2cccnc2n(-c2ccc(F)cc2)c1=O", 1.79),
    ("O=C(Nc1ccc(Oc2ccnc3[nH]ccc23)c(F)c1)c1cc2cccnc2n(-c2ccc(Cl)cc2)c1=O", 2.04),
    ("Cn1ccc2c(Oc3ccc(NC(=O)c4cc5cccnc5n(-c5ccc(F)cc5)c4=O)cc3F)ccnc21", 2.45),
    ("COc1ccc(-n2c(=O)c(C(=O)Nc3ccc(Oc4ccnc5[nH]ccc45)c(F)c3)cc3cccnc32)cc1", 2.79),
    ("Cn1ccc2c(Oc3ccc(NC(=O)c4cc5cccnc5n(-c5ccc(Br)cc5)c4=O)cc3F)ccnc21", 2.59),
    ("Cn1ccc2c(Oc3ccc(NC(=O)c4cc5cccnc5n(-c5ccc(F)cc5)c4=O)cc3)ccnc21", 2.32),
    ("Cn1ccc2c(Oc3ccc(NC(=O)c4cc5cccnc5n(-c5ccc(Br)cc5F)c4=O)cc3)ccnc21", 3.21),
    ("Cn1ccc2c(Oc3ccc(NC(=O)c4cc5cccnc5n(-c5ccc(F)c(Cl)c5)c4=O)cc3F)ccnc21", 3.55),
    ("Cn1ccc2c(Oc3ccc(NC(=O)c4cc5cccnc5n(-c5ccccc5)c4=O)cc3F)ccnc21", 2.63),
    ("COc1ccc(-n2c(=O)c(C(=O)Nc3ccc(Oc4ccnc5c4ccn5C)c(F)c3)cc3cccnc32)cc1", 3.44),
    ("Cn1ccc2c(Oc3ccc(NC(=O)c4cc5cccnc5n(-c5ccc(Br)cc5)c4=O)cc3)ccnc21", 2.83),
    ("Cn1ccc2c(Oc3ccc(NC(=O)c4cc5cccnc5n(-c5ccc(C(F)(F)F)cc5Cl)c4=O)cc3)ccnc21", 3.92),
    ("Cn1ccc2c(Oc3ccc(NC(=O)c4cc5cccnc5n(-c5ccc(Cl)cc5)c4=O)cc3)ccnc21", 2.80),
    ("COc1ccc(-n2c(=O)c(C(=O)Nc3ccc(Oc4ccnc5c4ccn5C)cc3)cc3cccnc32)cc1", 3.54),
]
